Origin of values: ChEMBL document CHEMBL1961873

Target: Serine/threonine-protein kinase Nek7 (Homo sapiens);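 further: reported values are mean inhibition of NEK7 from the GSK PKIS kinase screening panel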
Condition: at 1 µM
Endpoint: inhibition (%)
Answer format: numeric, % implied, no suffix.

Given the molecule O=C(Nc1n[nH]c2cc(-c3ccc(F)cc3)ccc12)C1CC1 , what is its reported inhibition? 3

Also need CC1=C(C(=O)Nc2cc(Cl)c3[nH]ncc3c2)C(c2ccc(C(F)(F)F)cc2)CC(=O)N1 (stereo not drawn) , thanks. 3.32

Also need CS(=O)(=O)CCNCc1ccc(-c2ccc3ncnc(Nc4ccc(OCc5ccccc5)c(C(F)(F)F)c4)c3c2)o1 , thanks. 4.17

---

Target: Calcium/calmodulin-dependent protein kinase type II subunit alpha (Homo sapiens);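 further: reported value is a mean percent inhibition of CAMK2A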
Condition: at 1 µM
Could you please report measured inhibition for the items listed next?
Answer format: numeric, % implied, no suffix.

Item: c1cc(-c2cnn3nc(N4CCOCC4)ccc23)nc(NC2CC2)n1 Test system: Calcium/calmodulin-dependent protein kinase type II subunit alpha (Homo sapiens) Read-out: inhibition Value: ? 6.53

Also need COc1cc(Nc2nccc(Nc3ccc4c(C)n[nH]c4c3)n2)cc(OC)c1OC , thanks. 4.38

Also need Fc1ccc(-c2cc(-c3c[nH]nc3-c3ccccn3)ccn2)cc1 , thanks. 2.33

Also need NS(=O)(=O)c1ccc(N/N=C2\C(=O)Nc3ccc4ncccc4c32)cc1 , thanks. 7.93

Also need CCN1CCC(CC(=O)Nc2n[nH]c3nnc(-c4cccc(F)c4F)cc23)CC1 , thanks. -0.76

Also need COc1ccc2c(-c3ccnc(Nc4cccc(OC(F)(F)F)c4)n3)cnn2n1 , thanks. 3.59

Also need COc1cc2c(cc1Nc1nc(Nc3ccsc3C(N)=O)c3cc[nH]c3n1)N(C(=O)CN(C)C)CCC2(C)C , thanks. 10.5

Also need CNC(=O)c1cncc(/C=C/c2ccccc2Cl)c1 , thanks. 1.63

Also need CNC(=O)c1cc(-c2ccc(F)cc2)cc(-c2ccc(S(=O)(=O)N3CCCC3)cc2)c1N , thanks. 1.06

Also need NS(=O)(=O)c1ccc(Nc2ncc(-c3ccccc3)o2)cc1 , thanks. 4.77

Also need CS(=O)(=O)CCNCc1ccc(-c2ccc3ncnc(Nc4ccc(OCc5ccccc5)c(C(F)(F)F)c4)c3c2)o1 , thanks. -1.78

Also need c1ccc(COc2ccc(Nc3ncnc4ccc(-c5ccco5)cc34)cc2)cc1 , thanks. 0.02

Also need N#Cc1c(NC(=O)CN2CCOCC2)sc2c1CCCC2 , thanks. 4.63

Also need CC(C)COC(=O)c1ccc2c(c1)/C(=C/Nc1ccc(S(N)(=O)=O)cc1)C(=O)N2 , thanks. 17.5

Also need c1ccc(-c2nc3n(c2-c2ccc4c(c2)OCO4)CCC3)nc1 , thanks. 0.36

Also need COc1cc2ncn(-c3cc(OCc4ccccc4C(F)(F)F)c(C(=O)N(C)C)s3)c2cc1OC , thanks. -0.49

Also need CN1CCC(n2cnc(-c3ccc(F)cc3)c2-c2ccnc(Nc3ccccc3)n2)CC1 , thanks. 1.68

Also need COc1ccc(CNC(=O)c2ccc(-c3cc(-c4nnc(C)o4)ccc3C)cc2)cc1 , thanks. 0.47

Also need COc1cc(/C=N/Nc2ncnc3[nH]ncc23)ccc1O , thanks. 5.41

Also need [O-][S+]1CCN(Cc2ccc(-c3ccc4ncnc(Nc5ccc(OCc6cccc(F)c6)c(Cl)c5)c4c3)o2)CC1 , thanks. 0.16

Also need COc1ccc(-c2cc3c(N)ncnc3o2)cc1 , thanks. -0.48

Also need Cc1ccc2c(-c3ccnc(Nc4ccccc4)n3)c(-c3ccc(F)cc3)nn2n1 , thanks. 4.16

Also need CCn1c(-c2nonc2N)nc2ccccc21 , thanks. 5.38

Also need Fc1ccc(-c2nn3ccccc3c2-c2ccncc2)cc1 , thanks. 0.25

Also need CCn1cc(-c2ccnc3[nH]ccc23)c(-c2cccc(NC(=O)Nc3ccc(OCc4ccccc4)cc3)c2)n1 , thanks. -2.25

Also need COC(=O)Nc1nc2ccc(Oc3ccc(NC(=O)Nc4cccc(Cl)c4)cc3)cc2[nH]1 , thanks. -1.94

Also need COc1ccc(-c2nn3ncccc3c2-c2ccnc(Nc3ccc4c(c3)OCCO4)n2)cc1 , thanks. -2.04

Also need COc1ccc(-c2oc3ncnc(N)c3c2-c2ccc(NC(=O)Nc3cc(C(F)(F)F)ccc3F)cc2)cc1 , thanks. 16.9

Also need Fc1ccc(-c2nn3ncccc3c2-c2ccnc(Nc3ccc4c(c3)OCCO4)n2)cc1 , thanks. 4.05

Also need COc1ccc(-c2cc(-c3c[nH]nc3-c3ccccn3)ccn2)cc1 , thanks. 6.7

Also need FC(F)(F)c1cccc(-c2nn3ncccc3c2-c2ccnc(Nc3ccc4c(c3)OCCO4)n2)c1 , thanks. 2.43

Also need COc1cccc(-n2ncc3c(N/N=C/c4ccc(F)cc4)ncnc32)c1 , thanks. 3.26

Also need CCn1c(-c2nonc2N)nc2cnc(Oc3cccc(NC(=O)c4ccc(N(C)C)cc4)c3)cc21 , thanks. 5.87

Also need CCn1c(-c2nonc2N)nc2c(C#CC(C)(C)O)ncc(OC3CCNCC3)c21 , thanks. 5.73

Also need COc1cc(N2CCN(C(C)C)CC2)ccc1Nc1nc(Nc2ccc(F)cc2C(N)=O)c2cc[nH]c2n1 , thanks. 53.3

Also need Nc1nc(-c2cccc(Cl)c2)c(-c2ccc3ncccc3n2)s1 , thanks. 2.48

Also need Cc1cccc2c1NC(=O)/C2=N\Nc1ccc(S(N)(=O)=O)cc1 , thanks. 3.33
